Record form. Attribute: IC50. Fill in for each entry.
assayedSystem: CT-L activity of purified 20S proteasome (Homo sapiens, UniProt P20618+P28074)
testProtocol: in vitro CT-L activity of purified 20S proteasome
Type: biochemical
assayContext: Table 7, 20S CT-L proteasome activity; read-out: IC50 (μM) CT-L
// units = µM; emit number, no label

In: Entry Cc1ccc(OCC(=O)N(Cc2nc(-c3ccc(C)cc3)no2)CC(C)C)cc1 has what IC50?
Out: 2.37

In: Entry Cc1ccc(OCC(=O)N(Cc2nc(-c3ccc(C)cc3)no2)C(C)C)cc1 has what IC50?
Out: 0.716

* * *

Record form. Attribute: IC50. Fill in for each entry.
assayedSystem: CT-L activity of purified 20S proteasome (Homo sapiens, UniProt P20618+P28074)
testProtocol: in vitro CT-L activity of purified 20S proteasome
Format: biochemical
assayContext: Table 1; read-out: IC50 (μM) Chymotrypsin-like activity
// units = µM; emit number, no label

In: Entry CCc1ccc(OCC(=O)N(Cc2nc(-c3ccccc3)no2)C(C)C)cc1 [11aa] has what IC50?
Out: 0.267

In: Entry Cc1ccc(-c2noc(CN(C(=O)COc3ccccc3)C(C)C)n2)cc1 [11k] has what IC50?
Out: 8.47

In: Entry CC(C)N(Cc1nc(-c2ccccc2)no1)C(=O)COc1ccc(C(=O)O)cc1 [11t] has what IC50?
Out: 27.8

In: Entry CC(C)N(Cc1nc(-c2ccccc2)no1)C(=O)COc1ccc(F)cc1 [11s] has what IC50?
Out: 8.73

In: Entry Cc1ccc(-c2noc(CN(C(=O)COc3ccc(Cl)cc3)C(C)C)n2)cc1 [11e] has what IC50?
Out: 1.12

In: Entry CC(C)N(Cc1nc(-c2ccc(C(F)(F)F)cc2)no1)C(=O)COc1ccccc1 [11l] has what IC50?
Out: 15.1

In: Entry CC(C)N(Cc1nc(-c2ccccc2)no1)C(=O)COc1ccc(Cl)cc1 [11h] has what IC50?
Out: 0.51

In: Entry Cc1ccc(OCC(=O)N(Cc2nc(-c3ccccc3)no2)C(C)C)cc1 [11m] has what IC50?
Out: 0.31

* * *

Record form. Attribute: IC50. Fill in for each entry.
assayedSystem: CT-L activity of purified 20S proteasome (Homo sapiens, UniProt P20618+P28074)
testProtocol: in vitro CT-L activity of purified 20S proteasome
Format: biochemical
assayContext: Table 10; read-out: IC50 (μM) CT-L
// units = µM; emit number, no label

In: Requested read-out IC50, target or system CT-L activity of purified 20S proteasome (Homo sapiens, UniProt P20618+P28074), entry CC(C)N(Cc1nc(-c2ccccc2)no1)C(=O)CCc1ccc(C(F)(F)F)cc1
Out: 15.7

In: Requested read-out IC50, target or system CT-L activity of purified 20S proteasome (Homo sapiens, UniProt P20618+P28074), entry CC(C)N(Cc1nc(-c2cccnc2)no1)C(=O)c1cc2ccccc2o1
Out: 0.379

* * *

assayedSystem: CT-L activity of purified 20S proteasome (Homo sapiens, UniProt P20618+P28074)
testProtocol: in vitro CT-L activity of purified 20S proteasome
Assay type: biochemical
assayContext: Table 5; read-out: IC50 (μM) Chymotrypsin-like
Mark label 1 only when IC50 stays strictly below 0.4 µM. Values equal to the cut-off are label 0.

In: In the record for CC(C)N(Cc1nc(-c2ccc(C(F)(F)F)cc2)no1)C(=O)COc1ccccc1 [drawing 126] , is IC50 less than 0.4 µM?
Out: label 0

In: In the record for Cc1ccc(OCC(=O)N(Cc2nc(-c3ccccc3)no2)C(C)C)cc1 [drawing 139] , is IC50 less than 0.4 µM?
Out: label 1

In: In the record for Cc1ccc(OCC(=O)N(Cc2nc(-c3ccccn3)no2)C(C)C)cc1 [drawing 138] , is IC50 less than 0.4 µM?
Out: label 0

In: In the record for CC(C)N(Cc1nc(-c2cccnc2)no1)C(=O)c1cc2ccccc2o1 [drawing 160] , is IC50 less than 0.4 µM?
Out: label 1

In: In the record for Cc1ccc(OCC(=O)N(C)Cc2nc(-c3ccc(C)cc3)no2)cc1 [drawing 122] , is IC50 less than 0.4 µM?
Out: label 0

In: In the record for CCCc1ccc(O[C@@H](C)C(=O)N(Cc2nc(-c3cccnc3)no2)C(C)C)cc1 (single isomer, unassigned) [drawing 176] , is IC50 less than 0.4 µM?
Out: label 1

In: In the record for CC(C)N(Cc1nc(-c2ccc(Cl)cc2)no1)C(=O)COc1ccc(Cl)cc1 [drawing 119] , is IC50 less than 0.4 µM?
Out: label 0

In: In the record for CCc1ccc(OCC(=O)N(Cc2nc(-c3cccnc3)no2)C(C)C)cc1 [drawing 145] , is IC50 less than 0.4 µM?
Out: label 1

In: In the record for CC(C)N(Cc1nc(-c2ccc(C(F)(F)F)cc2)no1)C(=O)COc1ccc(Cl)cc1 [drawing 120] , is IC50 less than 0.4 µM?
Out: label 0

In: In the record for Cc1ccc(OCC(=O)N(Cc2nc(-c3ccccc3)no2)C(C)C)cn1 [drawing 154] , is IC50 less than 0.4 µM?
Out: label 0

In: In the record for Cc1ccc(-c2noc(CN(C(=O)COc3ccc(C(C)C)cc3)C(C)C)n2)cc1 , is IC50 less than 0.4 µM?
Out: label 0

In: In the record for Cc1ccc(OCC(=O)N(Cc2nc3ccccc3[nH]2)C(C)C)cc1 [drawing 151] , is IC50 less than 0.4 µM?
Out: label 0

In: In the record for CC(C)N(Cc1nc(-c2ccccc2)no1)C(=O)COc1ccc(C(F)(F)F)cc1 [drawing 116] , is IC50 less than 0.4 µM?
Out: label 0

In: In the record for CC(C)N(Cc1nc(-c2ccccc2)no1)C(=O)COc1ccc(Cl)cc1 [drawing 121] , is IC50 less than 0.4 µM?
Out: label 0

In: In the record for Cc1ccc(OCC(=O)N(Cc2nc(-c3ccc(C(F)(F)F)cc3)no2)C(C)C)cc1 [drawing 112] , is IC50 less than 0.4 µM?
Out: label 0

In: In the record for Cc1ccc(O[C@@H](C)C(=O)N(Cc2nc(-c3cccnc3)no2)C(C)C)cc1 [drawing 162] , is IC50 less than 0.4 µM?
Out: label 1

In: In the record for CC(C)N(Cc1nc(-c2cccnc2)no1)C(=O)COc1ccccc1 [drawing 161] , is IC50 less than 0.4 µM?
Out: label 0

In: In the record for CCCc1ccc(OC(C)C(=O)N(Cc2nc(-c3cccnc3)no2)C(C)C)cc1 (racemic) [drawing 177] , is IC50 less than 0.4 µM?
Out: label 1

In: In the record for Cc1ccc(-c2noc(CN(C(=O)COc3ccccc3)C(C)C)n2)cc1 [drawing 124] , is IC50 less than 0.4 µM?
Out: label 0

In: In the record for Cc1ccc(OC(C)C(=O)N(Cc2nc(-c3cccnc3)no2)C(C)C)cc1 (centres unmarked) , is IC50 less than 0.4 µM?
Out: label 1

In: In the record for Cc1ccc(O[C@H](C)C(=O)N(Cc2nc(-c3cccnc3)no2)C(C)C)cc1 [drawing 163] , is IC50 less than 0.4 µM?
Out: label 0

In: In the record for Cc1ccc(NCC(=O)N(Cc2nc(-c3ccccc3)no2)C(C)C)cc1 [drawing 148] , is IC50 less than 0.4 µM?
Out: label 0

In: In the record for Cc1ccc(OCC(=O)N(Cc2nc(-c3ccccc3)no2)C(C)C)cc1 [drawing 117] , is IC50 less than 0.4 µM?
Out: label 1

In: In the record for CCN(Cc1nc(-c2ccc(C)cc2)no1)C(=O)COc1ccc(C)cc1 [drawing 128] , is IC50 less than 0.4 µM?
Out: label 0

In: In the record for Cc1ccc(OC(C)C(=O)N(Cc2nc(-c3ccccc3)no2)C(C)C)cc1 (centres unmarked) , is IC50 less than 0.4 µM?
Out: label 0

In: In the record for Cc1ccc(OCC(=O)N(Cc2nc(-c3ccncc3)no2)C(C)C)cc1 [drawing 147] , is IC50 less than 0.4 µM?
Out: label 1

In: In the record for CCCc1ccc(OCC(=O)N(Cc2nc(-c3cncnc3)no2)C(C)C)cc1 [drawing 168] , is IC50 less than 0.4 µM?
Out: label 1

In: In the record for CCCc1ccc(OCC(=O)N(Cc2nc(-c3cccnc3)no2)C(C)C)cc1 [drawing 157] , is IC50 less than 0.4 µM?
Out: label 1

In: In the record for Cc1ccc(-c2noc(CN(C(=O)COc3ccc(Cl)cc3)C(C)C)n2)cc1 [drawing 123] , is IC50 less than 0.4 µM?
Out: label 0

In: In the record for CCCc1ccc(OCC(=O)N(Cc2nc(-c3cnccn3)no2)C(C)C)cc1 [drawing 167] , is IC50 less than 0.4 µM?
Out: label 1

In: In the record for CC(C)N(Cc1nc(-c2ccccc2)no1)C(=O)CCc1ccc(C(F)(F)F)cc1 [drawing 130] , is IC50 less than 0.4 µM?
Out: label 0

In: In the record for CC(C)N(Cc1nc(-c2cccnc2)no1)C(=O)COc1ccc(C(C)(C)C)cc1 [drawing 170] , is IC50 less than 0.4 µM?
Out: label 0

In: In the record for Cc1ccc(OCC(=O)N(Cc2nc(-c3ccc(C)cc3)no2)C(C)C)cc1 [drawing 108] , is IC50 less than 0.4 µM?
Out: label 0

In: In the record for CC(C)c1ccc(OCC(=O)N(Cc2nc(-c3cccnc3)no2)C(C)C)cc1 [drawing 171] , is IC50 less than 0.4 µM?
Out: label 0

In: In the record for O=C(COc1ccc(C(F)(F)F)cc1)N(Cc1nc(-c2ccccc2)no1)C1CC1 [drawing 135] , is IC50 less than 0.4 µM?
Out: label 0

Just for reference, patent US9878999B2 is where these values come from.
